- Target Of Assay: KRAS G13D antigen (G13D-RT6, SEQ ID NO: 20) loaded on Lovo-DPA0301:DPB0501 cells (human)
- Protocol: cell-based or functional assay
Property Label: TCR Mut RLU/WT RLU (ratio)
Reply numerically in ratio, unit not repeated.

{"Binder": "B8.2.4 TCR mutant β95Q-T (TCR, V domains shown) V domain 1: AQKITQTQPGMFVQEKEAVTLDCTYDTSDPSYGLFWYKQPSSGEMIFLIYQGSYDQQNATEGRYSLNFQKARKSANLVISASQLGDSAMYFCAMRERTGTASKLTFGTGTRLQVTL V domain 2: DVKVTQSSRYLVKRTGEKVFLECVQDMDHENMFWYRQDPGLGLRLIYFSYDVKMKEKGDIPEGYSVSREKKERFSLILESASTNQTSMYLCASSTTVPPQHFGDGTRLSILE", "Units": "ratio", "Reported Value": 0.59}

[in] Returns the measured TCR Mut RLU/WT RLU for the input binder. Input: B8.2.4 TCR mutant β95Q-A (TCR, V domains shown) V domain 1: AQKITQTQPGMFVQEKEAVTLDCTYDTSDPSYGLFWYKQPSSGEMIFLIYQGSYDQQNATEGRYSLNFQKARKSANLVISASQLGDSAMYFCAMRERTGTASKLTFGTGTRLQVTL V domain 2: DVKVTQSSRYLVKRTGEKVFLECVQDMDHENMFWYRQDPGLGLRLIYFSYDVKMKEKGDIPEGYSVSREKKERFSLILESASTNQTSMYLCASSATVPPQHFGDGTRLSILE
[out] 0.86

Source of measurements: patent US20240123070A1
